System: IGROV1 ovarian
assay-method-text: NCI tumour cell line growth inhibition, 48 h
Below: a set of entries, each annotated with reported GI50.

- molecule: "N#CCn1c(=O)c(Oc2ccc(F)cc2F)cc2cnc(NC3CCOCC3)nc21"
  measured-target: "IGROV1 ovarian"
  GI50: "> 25 µM"
- molecule: "O=C(Nc1ccc(Oc2ccc3nc(NC(=O)c4ccco4)[nH]c3c2)cc1)Nc1cc(C(F)(F)F)ccc1F"
  measured-target: "IGROV1 ovarian"
  GI50: "1.23 µM"
- molecule: "CC(=O)Nc1ccc(C(=O)CCl)cc1"
  measured-target: "IGROV1 ovarian"
  GI50: "14.8 µM"
- molecule: "CSC1=NC(=Nc2c(C)cccc2C)C2(CCC(C(C)(C)C)CC2)N1c1ccc(Cl)cc1 (configuration not stated)"
  measured-target: "IGROV1 ovarian"
  GI50: "63.5 µM"
- molecule: "COc1cc2c(c(OC)c1OC)-c1ccc(NN(C(=O)c3ccccc3)C(=O)c3ccccc3)c(=O)cc1[C@@H](NC(C)=O)CC2 (tested in a mixture with another compound)"
  measured-target: "IGROV1 ovarian"
  GI50: "4.6 µM"
- molecule: "CC1CC2C3CCC4=CC(=O)C=CC4(C)C3(F)C(O)CC2(C)C1(O)C(=O)COP(=O)(O)O (configuration not stated)"
  measured-target: "IGROV1 ovarian"
  GI50: "> 500 µM"
- molecule: "COc1ccc(-c2cc(-c3ccc(Nc4nc(Nc5ccccc5)nc(Nc5ccc(Cl)cc5)n4)cc3)nc(N)n2)cc1"
  measured-target: "IGROV1 ovarian"
  GI50: "6.27 µM"
- molecule: "O=C1NC(=NCc2ccccc2Cl)S/C1=C\\c1ccc2ncccc2c1"
  measured-target: "IGROV1 ovarian"
  GI50: "9.01 µM"
- molecule: "NC(N)=N/N=C/c1c(-c2ccsc2)nc2n1CCS2"
  measured-target: "IGROV1 ovarian"
  GI50: "48.8 µM"
- molecule: "c1ccc(-c2oc(-c3ccccc3)c(CN3CCCCC3)c2CN2CCCCC2)cc1"
  measured-target: "IGROV1 ovarian"
  GI50: "1.73 µM"
- molecule: "C[C@@]1([C@H](OC(=O)c2ccccc2)C(N)=O)CO1"
  measured-target: "IGROV1 ovarian"
  GI50: "19.6 µM"
- molecule: "CN(C)c1ccc(/C=C\\c2ccnc3ccccc23)cc1"
  measured-target: "IGROV1 ovarian"
  GI50: "8.85 µM"
